Catalogue of compounds with associated EC50
Tested on: M. tuberculosis H37Rv_DdnL49P_gfp
Assay type: cell-based, Mycobacterium tuberculosis
Experimental conditions: read-out: EC50 H37Rv_DdnL49P_gfp

[[record]]
compound = "O=C1[C@@H]2[C@H](C(=O)N1c1nc3ccc(-c4ccc(C(F)(F)F)cc4)cc3s1)[C@@H]1C=C[C@H]2C1 [Example 61]"
measure = "EC50"
result = "< 1 µM"

[[record]]
compound = "C#CCOc1cccc2sc(NC(=O)[C@@H]3C4C=CC(C4)[C@@H]3C(=O)O)nc12 (stereo partly shown) [Example 75]"
measure = "EC50"
result = "1 to 5 µM"


EC50 measured on O=C(Nc1nc2ccc(Nc3cccc(F)n3)cc2s1)[C@@H]1C2C=CC(C2)[C@@H]1C(=O)O (stereo partly shown) [Example 88] = < 1 µM

EC50 measured on O=C(Nc1nc2ccc(OC(F)(F)F)cc2s1)[C@@H]1C2C=CC(C2)[C@@H]1C(=O)O (stereo partly shown) [Example 44] = 1 to 5 µM

EC50 measured on O=C(Nc1nc2ccc(Oc3ncccc3C(F)(F)F)cc2s1)[C@@H]1C2C=CC(C2)[C@@H]1C(=O)O (stereo partly shown) [Example 25] = 1 to 5 µM
